Values were extracted from ChEMBL document CHEMBL5113485.

- study system: Alpha-2B adrenergic receptor (Homo sapiens, UniProt P18089)
- Sequence (P18089 whole entry): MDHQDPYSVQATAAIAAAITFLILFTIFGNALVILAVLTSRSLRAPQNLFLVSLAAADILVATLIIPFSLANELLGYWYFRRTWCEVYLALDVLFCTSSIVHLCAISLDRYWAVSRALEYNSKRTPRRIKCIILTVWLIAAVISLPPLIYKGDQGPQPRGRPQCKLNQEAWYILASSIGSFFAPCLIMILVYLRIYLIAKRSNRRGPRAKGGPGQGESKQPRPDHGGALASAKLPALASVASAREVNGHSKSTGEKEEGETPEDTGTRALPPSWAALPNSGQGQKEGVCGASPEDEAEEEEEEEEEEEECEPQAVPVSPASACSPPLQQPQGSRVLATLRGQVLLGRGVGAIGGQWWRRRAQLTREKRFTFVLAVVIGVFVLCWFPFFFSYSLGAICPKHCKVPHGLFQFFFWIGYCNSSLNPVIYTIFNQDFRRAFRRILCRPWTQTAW
- method description: Displacement of [3H]RX 821002 from recombinant human alpha2B receptor measured after 60 mins by scintillation counting analysis
pKi: −log10 of the molar value.
Reported pKi values follow for various compounds

{"smiles code": "[2H]c1c([2H])c([2H])c([C@@H]2C[C@@H](N3CCN(C([2H])([2H])[2H])C(C)(C)C3)c3cc(Cl)ccc32)c([2H])c1[2H]", "pKi": 7.33}
{"smiles code": "[2H]c1c([2H])c([2H])c([C@@H]2C[C@@H](N3CCNC(C)(C)C3)c3cc(Cl)ccc32)c([2H])c1[2H]", "pKi": 6.31}
